# % inhibition ApPOL 90' annotations
Molecular target: UniProtKB Q8ILY1
Sequence (Q8ILY1 entry or part of it): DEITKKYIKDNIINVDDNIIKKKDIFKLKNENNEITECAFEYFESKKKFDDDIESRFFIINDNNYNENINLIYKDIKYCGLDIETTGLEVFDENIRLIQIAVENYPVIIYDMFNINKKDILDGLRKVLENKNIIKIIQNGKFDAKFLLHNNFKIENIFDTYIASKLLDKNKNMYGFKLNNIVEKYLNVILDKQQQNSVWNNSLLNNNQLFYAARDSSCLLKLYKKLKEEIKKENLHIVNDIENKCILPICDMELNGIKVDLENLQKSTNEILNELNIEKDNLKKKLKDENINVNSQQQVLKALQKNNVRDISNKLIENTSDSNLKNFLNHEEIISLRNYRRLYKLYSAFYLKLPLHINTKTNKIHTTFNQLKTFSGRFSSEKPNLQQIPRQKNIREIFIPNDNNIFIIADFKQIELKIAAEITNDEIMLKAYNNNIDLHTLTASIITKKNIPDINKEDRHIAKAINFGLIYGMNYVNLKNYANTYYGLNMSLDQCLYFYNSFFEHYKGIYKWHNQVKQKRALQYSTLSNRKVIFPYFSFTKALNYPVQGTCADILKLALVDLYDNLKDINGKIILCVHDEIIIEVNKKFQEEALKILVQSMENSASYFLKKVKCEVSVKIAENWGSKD
Assay: Fluorescence-based high-throughput DNA polymerase assay (molecular beacon), primary screen and dose-response;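 as to % inhibition ApPOL 90': test concentration in µM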
Assay type: biochemical
Conditions: DRC-2; 90'; concentration 20
readout kind: % inhibition ApPOL 90' (%)

[
  {
    "molecule": "Cc1ccc2c(C(=O)NCCc3cccnc3)cc(NC(=O)C(C)C)cc2n1 [KU0206096]",
    "system": "UniProtKB Q8ILY1",
    "readout kind": "% inhibition ApPOL 90'",
    "recorded value": 39
  },
  {
    "molecule": "Cc1cccc(-c2nnc3ccc(NS(=O)(=O)c4ccc(C)c(C)c4)nn23)c1 [Molecule 40]",
    "system": "UniProtKB Q8ILY1",
    "readout kind": "% inhibition ApPOL 90'",
    "recorded value": 46
  },
  {
    "molecule": "COc1ccc(CNC(=O)Cn2nc3c(c2NC(=O)Cc2cccs2)CSC3)cc1 [Molecule 55]",
    "system": "UniProtKB Q8ILY1",
    "readout kind": "% inhibition ApPOL 90'",
    "recorded value": 19
  },
  {
    "molecule": "COc1ccc(C=C2Oc3c(ccc4c3CN(c3ccc5c(c3)OCO5)CO4)C2=O)cc1OC [KU0199426]",
    "system": "UniProtKB Q8ILY1",
    "readout kind": "% inhibition ApPOL 90'",
    "recorded value": 69
  },
  {
    "molecule": "COc1ccc(NC(=O)Cn2ccc3c(=O)[nH]ccc32)cc1Cl [Molecule 10, COc1ccc(cc1Cl)NC(=O)Cn1ccc2c1cc[nH]c2=O]",
    "system": "UniProtKB Q8ILY1",
    "readout kind": "% inhibition ApPOL 90'",
    "recorded value": 69
  },
  {
    "molecule": "Cc1ccc(NC(=O)Cn2ccc3c(=O)[nH]ccc32)cc1F [Molecule 48, O=C(Cn1ccc2c1cc[nH]c2=O)Nc1ccc(c(c1)F)C]",
    "system": "UniProtKB Q8ILY1",
    "readout kind": "% inhibition ApPOL 90'",
    "recorded value": 56
  },
  {
    "molecule": "COc1ccc(S(=O)(=O)/N=C2\\NC(=O)/C(=C3\\C(=O)Nc4ccc([N+](=O)[O-])cc43)S2)cc1 [KU0054985]",
    "system": "UniProtKB Q8ILY1",
    "readout kind": "% inhibition ApPOL 90'",
    "recorded value": 33
  }
]

----------
# % inhibition Apol 90' annotations
Target: UniProtKB Q8ILY1
Assay: Fluorescence-based high-throughput DNA polymerase assay (molecular beacon), primary screen and dose-response
Assay type: biochemical
Conditions: DRC-1; 90'; concentration 2.5

[
  {
    "molecule": "COc1ccc(C)cc1NC(=O)Cn1ccc2c(=O)[nH]ccc21 [Molecule 15, COc1ccc(cc1NC(=O)Cn1ccc2c1cc[nH]c2=O)C]",
    "unit abbrev": "%",
    "% inhibition Apol 90'": -2.786
  },
  {
    "molecule": "Cc1nc(/N=N/c2ccc(C(=O)[O-])cc2)c(COP(=O)([O-])[O-])c(C=O)c1O.[Na+].[Na+].[Na+] [KU0261395]",
    "unit abbrev": "%",
    "% inhibition Apol 90'": 38.1069
  },
  {
    "molecule": "COc1cccc(Oc2c(C(F)(F)F)oc3cc(OC(=O)N(C)C)ccc3c2=O)c1 [Molecule 52]",
    "unit abbrev": "%",
    "% inhibition Apol 90'": 11.9844
  },
  {
    "molecule": "COc1ccc(NC(=O)Cn2ccc3c(=O)[nH]ccc32)cc1 [Molecule 13, COc1ccc(cc1)NC(=O)Cn1ccc2c1cc[nH]c2=O]",
    "unit abbrev": "%",
    "% inhibition Apol 90'": 1.393
  },
  {
    "molecule": "CCC(C)NC(=O)c1cc(NC(C)=O)cc2nc(C)ccc12 (centres unmarked) [KU0206314]",
    "unit abbrev": "%",
    "% inhibition Apol 90'": -1.658
  },
  {
    "molecule": "CN(C)C=CC(=O)c1ccccn1 [Molecule 64, CN(C=CC(=O)c1ccccn1)C]",
    "unit abbrev": "%",
    "% inhibition Apol 90'": 1.734
  },
  {
    "molecule": "Cn1nc(C(=O)N2CCc3c(nc4cc(-c5ccccc5)[nH]n4c3=O)C2)c2ccccc21 [Molecule 18]",
    "unit abbrev": "%",
    "% inhibition Apol 90'": 1.64
  },
  {
    "molecule": "COc1ccc(-c2n[nH]cc2Oc2ccc(Cl)cc2)c(O)c1 [KU0029837]",
    "unit abbrev": "%",
    "% inhibition Apol 90'": 6.836
  }
]
